# test description: chemical genetic growth profiling, strain panel (AID 1159580);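 further: tested at 20 µM; growth read once vehicle control cultures reached saturation at 30 °C; 1 = growth at the plate median or of vehicle wells; lower values mean less growth of the strain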
# assay conditions: S. cerevisiae deletion strains, growth OD, locus YBL061C, strain skt5, hits give low values
Out of some 5,500 compounds screened, about 2,000 (36%) were called active. Another 18% or so got no clear call; they are omitted. This is one part of the list.
We label by threshold. Values of normalized growth strictly beneath 1 are label 1. Values of 1 and up are label 0.

Input: Hi there! Is normalized growth for "O=C1O[C@@H](CO)[C@H](O)[C@@H](O)[C@@H]1O" below 1, do you know?
Output: label 0

Input: Hi there! Is normalized growth for "C=CCc1cc(OC)c2c(c1OC)OCO2" below 1, do you know?
Output: label 1

Input: Hi there! Is normalized growth for CN(Cc1cnc2nc(N)nc(N)c2n1)c1ccc(C(=O)NC(CCC(=O)O)C(=O)O)cc1 (stereo unspecified) below 1, do you know?
Output: label 1

----------
# test description: chemical genetic growth profiling, strain panel (AID 1159580);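 further: tested at 20 µM; growth read once vehicle control cultures reached saturation at 30 °C; 1 = growth at the plate median or of vehicle wells; lower values mean less growth of the strain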
# assay conditions: S. cerevisiae deletion strains, growth OD, locus YOL012C, strain htz1
In all, about 5,500 compounds went through this assay and about 2,000 (36%) were called active. Not shown: some 18% with an inconclusive outcome. The list shows a part of the results.
What normalized growth was measured for each of the following?
Reply: number alone, nothing else.

Input: Any idea what its normalized growth is? The compound is COc1ccc(C[C@H](N)C(=O)N[C@@H]2[C@@H](CO)OC(n3cnc4c(N(C)C)ncnc43)[C@@H]2O)cc1 (some centres undefined)
Output: 0.862

Input: Any idea what its normalized growth is? The compound is Nc1nc2c(c(=O)[nH]1)N(C=O)C(CNc1ccc(C(=O)N[C@@H](CCC(=O)O)C(=O)O)cc1)CN2 (some centres undefined)
Output: 0.703

Input: Any idea what its normalized growth is? The compound is CC(Cc1ccc(O)c(O)c1)(NN)C(=O)O (centres undefined)
Output: 0.764

Input: Any idea what its normalized growth is? The compound is "CC1=C(/C=C/C(C)=C/C=C/C(C)=C/C(=O)O)C(C)(C)CCC1"
Output: 1.82

Input: Any idea what its normalized growth is? The compound is "CC(=O)OC/C=C(C)/C=C/C=C(C)/C=C/C1=C(C)CCCC1(C)C"
Output: 1.19

Input: Any idea what its normalized growth is? The compound is "CCOC(=O)c1ccc(N)cc1"
Output: 0.986

Input: Any idea what its normalized growth is? The compound is "Nc1ccc(S(=O)(=O)Nc2nccs2)cc1"
Output: 1.03

Input: Any idea what its normalized growth is? The compound is "Cc1ccc(C(C)C)cc2c(C)ccc1-2"
Output: 0.644

Input: Any idea what its normalized growth is? The compound is "CCOP(=S)(OCC)Oc1ccc2c(C)c(Cl)c(=O)oc2c1"
Output: 1.3

Input: Any idea what its normalized growth is? The compound is OCC(S)CS (centres undefined)
Output: 0.787

Input: Any idea what its normalized growth is? The compound is "COc1ccc(/C=C/C(=O)O)cc1OC"
Output: 1.37

Input: Any idea what its normalized growth is? The compound is "C[C@@H]1C[C@@H]([C@H](O)CC2CC(=O)NC(=O)C2)C(=O)[C@@H](C)C1"
Output: 0.234

Input: Any idea what its normalized growth is? The compound is CC1=CC(=O)CC(C)(C)C1(O)/C=C/C(C)=C\C(=O)O (centres undefined)
Output: 0.831

Input: Any idea what its normalized growth is? The compound is CN(Cc1cnc2nc(N)nc(N)c2n1)c1ccc(C(=O)NC(CCC(=O)O)C(=O)O)cc1 (centres undefined)
Output: 1.38

Input: Any idea what its normalized growth is? The compound is "COc1cc(/C=C/C(=O)O)cc(OC)c1OC"
Output: 1.26

Input: Any idea what its normalized growth is? The compound is "COP(=S)(OC)Oc1ccc(SC)c(C)c1"
Output: 1.06

Input: Any idea what its normalized growth is? The compound is "NC(=O)N/N=C\c1ccc([N+](=O)[O-])o1"
Output: 0.96

Input: Any idea what its normalized growth is? The compound is "O=C1N=C(O)CN1/N=C\c1ccc(-c2ccc([N+](=O)[O-])cc2)o1"
Output: 0.991

Input: Any idea what its normalized growth is? The compound is "C[C@](N)(Cc1ccc(O)c(O)c1)C(=O)O"
Output: 0.552

Input: Any idea what its normalized growth is? The compound is "Nc1nccs1"
Output: 0.795

Input: Any idea what its normalized growth is? The compound is Nc1nc(N)c2nc(CNc3ccc(C(=O)NC(CCC(=O)O)C(=O)O)cc3)cnc2n1 (centres undefined)
Output: 0.761

Input: Any idea what its normalized growth is? The compound is "CC1=C(/C=C/C(C)=C/C=C/C(C)=C/C=C/C=C(C)/C=C/C=C(C)/C=C/C2=C(C)CCCC2(C)C)C(C)(C)CCC1"
Output: 1.24

Input: Any idea what its normalized growth is? The compound is "COc1cc(/C=C/C(=O)O)ccc1O"
Output: 0.646

Input: Any idea what its normalized growth is? The compound is "COc1ccc(-c2cc(C(F)F)nn2-c2ccc(S(N)(=O)=O)cc2)cc1F"
Output: 1.3
